Experiment: Pharmacokinetic/toxicokinetic profile of RTX after intravesical instillation in dogs
Type: in vivo, dog
Conditions: female, dog, plasma, 250 ug, female dogs 1004, 1006 individual, 250 mcg intravesical; read-out: Tmax
Experimental: Local tolerance and the pharmacokinetic (PK), and toxicokinetic (TK) profile of RTX in dogs was determined after a single instillation of RTX into the bladder of dogs (n=6). […] Blood samples were collected from all animals on Day 1 pre-dose and at 0.5, 1, 2, 4, 6, 12, 24, 36, 48, 60, and 72 hours post-dose. The toxicokinetic (TK) parameters were determined for RTX, and if appropriate, the metabolites, from mean concentration-time data. […]
Reported Endpoint: Tmax (min)
Write it as a number; the unit min goes unstated.

Just so you know, measured Tmax for C=C(C)[C@]12C[C@@H](C)[C@@]34O[C@](Cc5ccccc5)(O[C@@H]1[C@@H]3C=C(COC(=O)Cc1ccc(O)c(OC)c1)C[C@]1(O)C(=O)C(C)=C[C@@H]41)O2 came out at 30

* * *

Assay: Pharmacokinetic/toxicokinetic profile of RTX after intravesical instillation in dogs
Type: in vivo, dog
Settings: female, dog, plasma, other: intravesical instillation, 250 mcg, female dogs 1004, 1006 individual, 250 mcg intravesical, 48 h; read-out: Plasma concentration of RTX
Reported Endpoint: concentration at 48 h (ng/mL)
Give just the number in ng/mL; leave the unit off.

concentration at 48 h in this record for C=C(C)[C@]12C[C@@H](C)[C@@]34O[C@](Cc5ccccc5)(O[C@@H]1[C@@H]3C=C(COC(=O)Cc1ccc(O)c(OC)c1)C[C@]1(O)C(=O)C(C)=C[C@@H]41)O2 : 0

* * *

Experiment: Pharmacokinetic/toxicokinetic profile of RTX after intravesical instillation in dogs
Assay type: in vivo, dog
Conditions: female, dog, plasma, other: intravesical instillation, 25 mcg, female dog 1002, 25 mcg intravesical, 0.5 h; read-out: Plasma concentration of RTX
Reported Endpoint: concentration at 0.5 h (ng/mL)
The reply should contain only the number, in ng/mL.

For reference, reported concentration at 0.5 h for C=C(C)[C@]12C[C@@H](C)[C@@]34O[C@](Cc5ccccc5)(O[C@@H]1[C@@H]3C=C(COC(=O)Cc1ccc(O)c(OC)c1)C[C@]1(O)C(=O)C(C)=C[C@@H]41)O2 stands at 0.0392

* * *

Assay: Pharmacokinetic/toxicokinetic profile of RTX after intravesical instillation in dogs
Assay type: in vivo, dog
Conditions: male, dog, plasma, other: intravesical instillation, 250 mcg, male dogs, 250 mcg intravesical, 48 h; read-out: Plasma concentration of RTX, Mean
Reported Endpoint: concentration at 48 h (ng/mL)
State just the number; it will be interpreted in ng/mL.

Input C=C(C)[C@]12C[C@@H](C)[C@@]34O[C@](Cc5ccccc5)(O[C@@H]1[C@@H]3C=C(COC(=O)Cc1ccc(O)c(OC)c1)C[C@]1(O)C(=O)C(C)=C[C@@H]41)O2 . Output concentration at 48 h: 0

* * *

Assay: Pharmacokinetic/toxicokinetic profile of RTX after intravesical instillation in dogs
Assay type: in vivo, dog
Conditions: male, dog, plasma, other: intravesical instillation, 250 mcg, male dogs 1003, 1005 individual, 250 mcg intravesical, 12 h; read-out: Plasma concentration of RTX
Procedure: Local tolerance and the pharmacokinetic (PK), and toxicokinetic (TK) profile of RTX in dogs was determined after a single instillation of RTX into the bladder of dogs (n=6). […] Blood samples were collected from all animals on Day 1 pre-dose and at 0.5, 1, 2, 4, 6, 12, 24, 36, 48, 60, and 72 hours post-dose. The toxicokinetic (TK) parameters were determined for RTX, and if appropriate, the metabolites, from mean concentration-time data. […]
Reported Endpoint: concentration at 12 h (ng/mL)
Please respond with the number in ng/mL and leave the unit unwritten.

Short answer for C=C(C)[C@]12C[C@@H](C)[C@@]34O[C@](Cc5ccccc5)(O[C@@H]1[C@@H]3C=C(COC(=O)Cc1ccc(O)c(OC)c1)C[C@]1(O)C(=O)C(C)=C[C@@H]41)O2 : concentration at 12 h was 0

* * *

Assay: Pharmacokinetic/toxicokinetic profile of RTX after intravesical instillation in dogs
Format: in vivo, dog
Conditions: male, dog, plasma, other: intravesical instillation, 250 mcg, male dogs, 250 mcg intravesical, 6 h; read-out: Plasma concentration of RTX, Mean
Reported Endpoint: concentration at 6 h (ng/mL)
Value expressed in ng/mL; do not type the unit.

Notebook: C=C(C)[C@]12C[C@@H](C)[C@@]34O[C@](Cc5ccccc5)(O[C@@H]1[C@@H]3C=C(COC(=O)Cc1ccc(O)c(OC)c1)C[C@]1(O)C(=O)C(C)=C[C@@H]41)O2 [RTX, resiniferatoxin] , concentration at 6 h read as 0

* * *

Test: Pharmacokinetic/toxicokinetic profile of RTX after intravesical instillation in dogs
Assay type: in vivo, dog
Conditions: male, dog, plasma, other: intravesical instillation, 250 mcg, male dogs, 250 mcg intravesical, 2 h; read-out: Plasma concentration of RTX, Mean
Reported Endpoint: concentration at 2 h (ng/mL)
Response body: numeric value in ng/mL, unit text excluded.

Memo: C=C(C)[C@]12C[C@@H](C)[C@@]34O[C@](Cc5ccccc5)(O[C@@H]1[C@@H]3C=C(COC(=O)Cc1ccc(O)c(OC)c1)C[C@]1(O)C(=O)C(C)=C[C@@H]41)O2 , reported concentration at 2 h: 0.0615

* * *

Assay: Pharmacokinetic/toxicokinetic profile of RTX after intravesical instillation in dogs
Assay type: in vivo, dog
Conditions: male, dog, plasma, other: intravesical instillation, 250 mcg, male dogs 1003, 1005 individual, 250 mcg intravesical, 36 h; read-out: Plasma concentration of RTX
Reported Endpoint: concentration at 36 h
Include the unit right after the number.

# concentration at 36 h of C=C(C)[C@]12C[C@@H](C)[C@@]34O[C@](Cc5ccccc5)(O[C@@H]1[C@@H]3C=C(COC(=O)Cc1ccc(O)c(OC)c1)C[C@]1(O)C(=O)C(C)=C[C@@H]41)O2 = 0 ng/mL

* * *

Test: Pharmacokinetic/toxicokinetic profile of RTX after intravesical instillation in dogs
Type: in vivo, dog
Details: female, dog, plasma, other: intravesical instillation, 250 mcg, female dogs 1004, 1006 individual, 250 mcg intravesical, 24 h; read-out: Plasma concentration of RTX
Protocol: Local tolerance and the pharmacokinetic (PK), and toxicokinetic (TK) profile of RTX in dogs was determined after a single instillation of RTX into the bladder of dogs (n=6). […] Blood samples were collected from all animals on Day 1 pre-dose and at 0.5, 1, 2, 4, 6, 12, 24, 36, 48, 60, and 72 hours post-dose. The toxicokinetic (TK) parameters were determined for RTX, and if appropriate, the metabolites, from mean concentration-time data. […]
Reported Endpoint: concentration at 24 h
Remember to quote the unit after the number.

Query C=C(C)[C@]12C[C@@H](C)[C@@]34O[C@](Cc5ccccc5)(O[C@@H]1[C@@H]3C=C(COC(=O)Cc1ccc(O)c(OC)c1)C[C@]1(O)C(=O)C(C)=C[C@@H]41)O2 [RTX, resiniferatoxin] yields concentration at 24 h of 0 ng/mL

* * *

Experiment: Pharmacokinetic/toxicokinetic profile of RTX after intravesical instillation in dogs
Format: in vivo, dog
Details: male, dog, plasma, other: intravesical instillation, 250 mcg, male dogs, 250 mcg intravesical, 24 h; read-out: Plasma concentration of RTX, Mean
Reported Endpoint: concentration at 24 h (ng/mL)
The answer is to be given in ng/mL; state only the numeric part.

molecule C=C(C)[C@]12C[C@@H](C)[C@@]34O[C@](Cc5ccccc5)(O[C@@H]1[C@@H]3C=C(COC(=O)Cc1ccc(O)c(OC)c1)C[C@]1(O)C(=O)C(C)=C[C@@H]41)O2 , concentration at 24 h observed: 0

* * *

Assay: Pharmacokinetic/toxicokinetic profile of RTX after intravesical instillation in dogs
Assay type: in vivo, dog
Details: male, dog, plasma, 250 ug, male dogs, 250 mcg intravesical; read-out: AUC(0-T), Mean
Reported Endpoint: AUC(0-t) (ng·h/mL)
Your answer is read as ng·h/mL, so omit the unit and give the number.

Looking up C=C(C)[C@]12C[C@@H](C)[C@@]34O[C@](Cc5ccccc5)(O[C@@H]1[C@@H]3C=C(COC(=O)Cc1ccc(O)c(OC)c1)C[C@]1(O)C(=O)C(C)=C[C@@H]41)O2 , I found its AUC(0-t) recorded as 0.361
